TARGET_OF_ASSAY: T1, soluble KDR extracellular domain (ECD) (Calbiochem) (human, UniProt P35968 20-764)
T1 construct: extracellular domain; Bought protein; also called KDR-ECD; VEGF Receptor 2 D1-7, Cat. #676490
ASSAY_EXPLANATION: High Antigen ELISA, KDR coat 500 ng/mL, supernatant 1:75
TEST_READOUT: ELISA reading
// keep it numeric: no unit symbol after the value

ELISA reading recorded for this binder, 21H9 (antibody, V domains shown, Fully human mAb from XenoMouse hybridoma, tested as hybridoma supernatant) VH: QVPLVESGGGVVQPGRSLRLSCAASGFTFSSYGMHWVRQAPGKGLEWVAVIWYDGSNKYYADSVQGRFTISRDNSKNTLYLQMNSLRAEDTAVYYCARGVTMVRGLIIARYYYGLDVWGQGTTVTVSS VL: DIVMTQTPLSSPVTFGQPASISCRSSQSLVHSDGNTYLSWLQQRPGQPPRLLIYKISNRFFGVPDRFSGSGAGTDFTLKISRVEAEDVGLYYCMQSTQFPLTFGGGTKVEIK , is 4.34

# ELISA reading (binder: 21H6 (antibody, V domains shown, Fully human mAb from XenoMouse hybridoma, tested as hybridoma supernatant) VH: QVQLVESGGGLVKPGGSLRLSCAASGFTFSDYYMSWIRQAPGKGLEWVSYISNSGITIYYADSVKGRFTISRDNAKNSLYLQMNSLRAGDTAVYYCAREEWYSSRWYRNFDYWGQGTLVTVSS VL: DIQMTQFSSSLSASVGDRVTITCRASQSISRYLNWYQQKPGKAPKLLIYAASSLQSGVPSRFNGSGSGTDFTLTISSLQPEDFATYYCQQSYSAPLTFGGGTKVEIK ) is 4.19

# ELISA reading (binder: 29F7 (antibody, V domains shown, Fully human mAb from XenoMouse hybridoma, tested as hybridoma supernatant) VH: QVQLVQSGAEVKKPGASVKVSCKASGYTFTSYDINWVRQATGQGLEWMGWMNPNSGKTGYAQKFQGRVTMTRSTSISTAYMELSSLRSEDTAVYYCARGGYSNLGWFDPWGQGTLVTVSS VL: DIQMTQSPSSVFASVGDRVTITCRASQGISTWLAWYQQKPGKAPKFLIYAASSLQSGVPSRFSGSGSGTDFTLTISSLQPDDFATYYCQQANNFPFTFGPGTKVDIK ) is 4.49

Record summary for 24C9 (antibody, V domains shown, Fully human mAb from XenoMouse hybridoma, tested as hybridoma supernatant) VH: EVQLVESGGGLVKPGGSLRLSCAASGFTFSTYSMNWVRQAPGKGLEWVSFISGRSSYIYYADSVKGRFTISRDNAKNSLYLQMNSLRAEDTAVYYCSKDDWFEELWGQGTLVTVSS VL: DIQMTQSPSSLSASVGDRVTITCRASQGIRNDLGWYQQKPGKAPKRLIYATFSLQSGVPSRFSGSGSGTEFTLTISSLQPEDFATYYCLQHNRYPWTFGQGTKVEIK : reported ELISA reading = 2.48

Summary for this binder, 27A3 (antibody, V domains shown, Fully human mAb from XenoMouse hybridoma, tested as hybridoma supernatant) VH: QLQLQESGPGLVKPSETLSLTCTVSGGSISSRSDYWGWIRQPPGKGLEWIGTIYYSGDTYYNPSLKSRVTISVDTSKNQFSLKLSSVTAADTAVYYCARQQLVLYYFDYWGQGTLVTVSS VL: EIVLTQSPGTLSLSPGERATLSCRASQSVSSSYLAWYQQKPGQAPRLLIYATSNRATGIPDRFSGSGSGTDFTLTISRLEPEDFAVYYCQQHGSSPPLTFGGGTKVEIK : ELISA reading is 4.72
